Measured concentration at 1 h, listed per entry.
Experiment: Brain and plasma concentrations in mice after intraperitoneal administration (LC-MS-MS), non-compartmental analysis
Format: in vivo
Conditions: male, Swiss-Webster, mouse, brain, ip, 10 mg/kg, 1 h, 10 mg/kg i.p., individual mice; read-out: [drug],brain (free base equivalent)
Method: Doses are reported by weight of the specified salt. […] Body mass was measured to ±0.1 g. Mice were sacrificed by cervical dislocation, then decapitated for collection of brain and blood samples. […] Drug concentrations (ng mL^-1) refer to the free base, and were measured by liquid chromatography-tandem mass spectrometry (LC-MS-MS) as described previously. […] Compounds were detected in positive ion mode, tuned to the mass transition with the largest intensity. […]

COMPOUND	MEASUREMENT_UNITS	CENSORING_OPERATOR	concentration at 1 h
N=C(N)Nc1ccc2[nH]c3c(c2c1)C[C@@]1(O)[C@H]2Cc4ccc(O)c5c4[C@@]1(CCN2CC1CC1)[C@H]3O5 [GNTI, 5’-guanidinonaltrindole]	ng/g	<	120
Oc1ccc2c3c1O[C@H]1c4[nH]c5c(c4C[C@@]4(O)[C@@H](C2)N(CC2CC2)CC[C@]314)C[C@@]1(O)[C@H]2Cc3ccc(O)c4c3[C@@]1(CCN2CC1CC1)[C@H]5O4 [nor-BNI, norbinaltorphimine]	ng/g	=	324
